Readings of GI50 for the listed compounds
test system: K-562 cells
Numbers only here, please. The scale is nM.

Cc1cc(N2C(=O)c3nn(C(C)C)c(C)c3C2c2ccc(F)cc2F)cn2c(C)nnc12 (stereo not shown); 192
CCc1nn(CCOCC(F)(F)F)c2c1C(c1ccc(Cl)cc1)N(c1cc(OC)c3nnc(C)n3c1)C2=O (stereo not shown); 1510
Cc1nn(C(C)C)c2c1C(c1ccc(F)cc1F)N(c1cc(C)c3nnc(C)n3c1)C2=O (stereo not shown); 158

Query: Enter reported GI50 observed with K-562 cells for Cc1nn(C2CC2)c2c1C(c1ccc(Cl)cc1)N(c1cn(C)c(=O)c3[nH]ccc13)C2=O (stereo not shown)
Reply: 426

Query: Enter reported GI50 observed with K-562 cells for Cc1nn(C2CNC2)c2c1C(c1ccc(Cl)cc1)N(c1cc(C)c3nnc(C)n3c1)C2=O (stereo not shown)
Reply: 2610

Query: Enter reported GI50 observed with K-562 cells for CCc1nn(C2CC2)c2c1C(c1ccc(Cl)cc1)N(c1cc(C)c(=O)n(C)c1)C2=O (stereo not shown)
Reply: 135

Query: Enter reported GI50 observed with K-562 cells for COc1ncc(-n2nc3c(c2C(C)C)[C@@H](c2ccc(Cl)cc2)N(c2cc(C)c4onc(C)c4c2)C3=O)c(OC)n1
Reply: 316
